Taken from ChEMBL document CHEMBL5303304.

System: U2OS
test_summary: Incucyte cell viability with U2OS; also: unitless GR value; below 1 slowed growth and below 0 cell loss
Assay type: toxicity, cell-based
test_parameters: human, 24 h, 10 µM, compound concentration 10 uM, replicate number 1
measured_parameter: Growth Rate
In your answer, state the number alone without any accompanying words.

Requested read-out: Growth Rate. Entry: COc1cc(NC(=O)c2ccc(-c3ccc(Cl)cc3)o2)cc(OC)c1
0.98

Requested read-out: Growth Rate. Entry: CN(C)CC#Cc1ccc2[nH]c3c(c2c1)-c1nc(N)ncc1CCC3
0.86

Requested read-out: Growth Rate. Entry: CC(=O)O.Cc1cc2c(ncn2C2(C)CN(C(=O)c3ccn(CC4CCN([C@H]5C=CCCCC5)CC4)c3)C2)c(N)n1
0.75

Requested read-out: Growth Rate. Entry: Nc1ncc2c(n1)-c1c([nH]c3ccc(C4=CCOCC4)cc13)CCC2
0.76

Requested read-out: Growth Rate. Entry: COc1cc2c(NC3CCN(C(C)C)CC3)nc(C3CCCCC3)nc2cc1OCCCN1CCCC1
-0.01

----------
Test system: U2OS
test_summary: Incucyte cell viability with U2OS; also: unitless GR value; below 1 slowed growth and below 0 cell loss
Format: toxicity, cell-based
test_parameters: human, 24 h, 10 µM, compound concentration 10 uM, replicate number 2
Give Growth Rate for every item shown.
In your answer, state the number alone without any accompanying words.

Requested read-out: Growth Rate. Entry: CN[C@@H](C)C(=O)N[C@H](C(=O)N1CCC[C@H]1C(=O)Nc1snnc1-c1ccccc1)C1CCCCC1
0.98

Requested read-out: Growth Rate. Entry: Cc1cc(-c2nncc3c(C(C)(C)C)c(OCc4ncnn4C)nn23)no1
0.86

Requested read-out: Growth Rate. Entry: COc1cc(C(=O)NC2CCN(C)CC2)ccc1Nc1ncc(C(F)(F)F)c(NCc2ccc(C)cc2N(C)S(C)(=O)=O)n1.O=CO.O=CO
-0.53

Requested read-out: Growth Rate. Entry: Cc1cnc(Nc2ccc(C(=O)N3CCN(C)CC3)cc2)nc1N[C@@H]1CCC[C@@H]1C(N)=O
0.52

----------
Test system: HEK-293T
test_summary: Incucyte cell viability with HEK293T; also: unitless GR value; below 1 slowed growth and below 0 cell loss
Format: toxicity, cell-based
test_parameters: human, 24 h, 10 µM, compound concentration 10 uM, replicate number 1
measured_parameter: Growth Rate
In your answer, state the number alone without any accompanying words.

Requested read-out: Growth Rate. Entry: O=C1CCCN1CCNc1nc(Nc2ccc(Cl)c(Cl)c2)ncc1C(F)(F)F
0.78

Requested read-out: Growth Rate. Entry: CCOC(=O)c1cnn(-c2ccc(NC(=O)C(Cl)=C(Cl)Cl)cc2)c1C(F)(F)F
-0.51

Requested read-out: Growth Rate. Entry: CC[C@@H]1C(=O)N(C)c2cnc(Nc3ccc(C(=O)NC4CCN(C)CC4)cc3OC)nc2N1C1CCCC1
-0.17

Requested read-out: Growth Rate. Entry: COc1cc(-c2cn(C)c(=O)c3cnccc23)c(OC)cc1CN(C)C
0.68

Requested read-out: Growth Rate. Entry: CC(C)n1cc(-c2ccc(N3CCN(C)CC3)c(NC(=O)c3ccc(-c4ccncc4)o3)c2)cn1
-0.08

----------
Give Growth Rate for every item shown.
System: Fibroblast
test_summary: Incucyte cell viability with human fibroblast; also: unitless GR value; below 1 slowed growth and below 0 cell loss
Type: toxicity, cell-based
test_parameters: 6 h, 10 µM, compound concentration 10 uM, replicate number 2
In your answer, state the number alone without any accompanying words.

Requested read-out: Growth Rate. Entry: Cc1ccc2c(N)c(C(=O)NC3CCc4cc(N5CC6CCC(C5)N6)ccc4C3)sc2n1.O=CO (stereo unspecified)
-0.1

Requested read-out: Growth Rate. Entry: CNC(=O)c1c[nH]c2ccc(Nc3nccc(-c4ccccn4)n3)cc12
0.18

Requested read-out: Growth Rate. Entry: Cc1cc(=O)oc2cc(NC(=O)[C@H](Cc3ccc(I)cc3)NC(=O)[C@H]3N[C@@H]4CC[C@H]3C4)ccc12.O=C(O)C(F)(F)F
-0.13

Requested read-out: Growth Rate. Entry: O=C(O)CNC(=O)c1c(O)c2ccccc2n(Cc2ccccc2)c1=O
0.61

Requested read-out: Growth Rate. Entry: C[C@@H](CN1CC[C@@]2(C)c3cccc(O)c3C[C@@H]1C2(C)C)OCc1ccccc1.Cl
-0.28

Requested read-out: Growth Rate. Entry: Cc1onc(-c2ccc(F)cc2)c1COc1ccc(C(=O)N2CCS(=O)(=O)CC2)cn1
-0.92

Requested read-out: Growth Rate. Entry: COc1ccccc1C(=O)Nc1cccc(NC(=O)c2cccc(C)c2)c1
-1

Requested read-out: Growth Rate. Entry: C=CC(=O)N1CCC[C@@H](n2nc(-c3ccc(Oc4ccccc4)cc3)c3c(N)ncnc32)C1
0.23

Requested read-out: Growth Rate. Entry: COc1cc(Cl)c(C(=O)N[C@@H](CN[C@H]2CC[C@@H](N)CC2)Cc2ccc(C#N)cc2)cc1-c1ccc(CN[C@H](C)c2ccc(C)cc2)o1
-0.83

Requested read-out: Growth Rate. Entry: O=C(O)C(F)(F)F.O=C1NC(=O)/C(=C/c2c[nH]c(=O)c(-c3ccc(N4CCNCC4)nc3)c2)S1
-0.44

Requested read-out: Growth Rate. Entry: c1cc(-c2cnn3cc(-c4ccc(N5CCNCC5)cc4)cnc23)c2cccnc2c1
-1

Requested read-out: Growth Rate. Entry: Cc1c(-c2c(F)cc(C(N)=O)c3[nH]c4c(c23)CC[C@H](C(C)(C)O)C4)cccc1-n1c(=O)c2cccc(F)c2n(C)c1=O
-0.9

Requested read-out: Growth Rate. Entry: CCN1C(=O)N(c2c(F)c(OC)cc(OC)c2F)Cc2cnc3[nH]c(CN4CCOCC4)cc3c21
0.12

Requested read-out: Growth Rate. Entry: CCN(C)S(=O)(=O)Nc1cccc(-c2ccc3c(NC(=O)C4CC4)n[nH]c3c2)c1
-0.37

Requested read-out: Growth Rate. Entry: COc1ccccc1S(=O)(=O)Nc1ccc2c(c1)CN(C)C(=O)N2
-0.15

Requested read-out: Growth Rate. Entry: CC/C(=C(\c1ccccc1)c1ccc(OCCN(C)C)cc1)c1ccccc1.O=C(O)CC(O)(CC(=O)O)C(=O)O [TAMOXIFEN CITRATE]
0.32

Requested read-out: Growth Rate. Entry: Cl.Cl.N#Cc1ccc(O[C@@H]2c3ccccc3C[C@H]2N2CCC[C@@H](N)C2)c(Cl)c1
0.35

Requested read-out: Growth Rate. Entry: NC(=O)OC[C@H](NC(=O)Cn1nc(-c2ccc(Cl)cc2)n(C[C@H](O)C(F)(F)F)c1=O)c1cccc(C(F)(F)F)c1
-0.17

Requested read-out: Growth Rate. Entry: COc1cc2c(cc1CC=C(C)C)C(=O)C[C@@H](c1ccc(O)cc1)O2
0.81

Requested read-out: Growth Rate. Entry: Cl.O=C(c1ccc(-c2ccc(Cl)cc2)o1)N(Cc1ccccn1)c1ccc(N2CCNCC2)cc1
-1

Requested read-out: Growth Rate. Entry: CO[C@H](C)CN1CC[C@@]2(C)c3ccc(O)cc3C[C@@H]1C2(C)C.Cl
0.74

Requested read-out: Growth Rate. Entry: Br.CO[C@H]1CC=C2CCN3CCC4=C(CC(=O)OC4)[C@]23C1
0.8

Requested read-out: Growth Rate. Entry: Cc1onc(O)c1CC(N)C(=O)O [(R,S)-AMPA]
-0.99

Requested read-out: Growth Rate. Entry: CN(C)C(=O)Cn1cc(-c2ccc(-c3cncc4ccccc34)cc2)cn1
-0.33

Requested read-out: Growth Rate. Entry: CCC(C)(C)CC[C@H](NC(=O)N1CCOCC1)C(=O)NC1(C#N)CCN(C)CC1
-0.59

Requested read-out: Growth Rate. Entry: COc1ccc(Br)cc1S(=O)(=O)NC(=O)/C=C/c1cc(Cl)ccc1Cc1ccc2ccccc2c1
-0.77

Requested read-out: Growth Rate. Entry: C=C[C@@]12CCc3cc(O)ccc3[C@H]1CC[C@@]1(C)[C@H]2CC[C@@H]1O
0.88

Requested read-out: Growth Rate. Entry: Cc1cc(Nc2cc(N)ncn2)c(=O)n2c1C(=O)NC21CCCCC1
-0.8

Requested read-out: Growth Rate. Entry: CN(C)C(=O)Cn1cc(-c2nc(C3(c4ccc(-c5cnc(N)nc5)cc4)CC3)no2)cn1
-0.35

Requested read-out: Growth Rate. Entry: COC[C@@H](CC(C)C)NC1=N/C(=C\c2ccc3ncsc3c2)C(=O)N1C
0.03

Requested read-out: Growth Rate. Entry: COc1ccc(-c2c(-c3ccccc3)oc3ncnc(O[C@H](C)CCCCC(=O)O)c23)cc1
-0.43

Requested read-out: Growth Rate. Entry: O=C(Nc1snnc1C(=O)Nc1ccc(N2CCCC2)cc1)c1cncc(C(F)(F)F)c1
0.26

Requested read-out: Growth Rate. Entry: COc1cc(-c2cn(C)c(=O)c3cnccc23)cc(OC)c1CN(C)C
-0.34

Requested read-out: Growth Rate. Entry: CC1(C)CC(CN2CCC(F)(CNC(=O)c3cc(Cl)cc(Cl)c3)CC2)CCO1 (stereo unspecified)
0.34

Requested read-out: Growth Rate. Entry: CC(C)c1cc(Br)c(NC(=O)Nc2cccnc2)c(Br)c1
-0.99

Requested read-out: Growth Rate. Entry: FC(F)(F)c1ccc(CNc2ccc(Cc3c[nH]c4ncc(Cl)cc34)cn2)cn1
0.13
